Tested on: 993429-296-R-J1-PDC complex spheroid growth, percent test/control;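 further: spheroids exposed to compounds for seven days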
assay.method.text: Anticancer human tumor 993429-296-R-J1-PDC patient-derived uterine sarcoma cell line growth inhibition [Asc]
protocol.conditions: curve of first compound; second compound 1 µM
From the text: Multicellular complex tumor spheroid response to apoptosis pathway targeting inhibitors Alrizomadlin, Pelcitoclax, and Dasminapant in combination with a variety of drugs and investigational agents in selected tumor cell lines […] Compounds. […] If the clinical Cmax for an agent had not been determined, the highest concentration tested was 10 microM. […]
Consider the following compounds and their measured IC50 readings.
Give the quantity in nM, number only.

compound	IC50 (nM)
O=C(c1ccc(F)c(F)c1Nc1ccc(I)cc1F)N1CC(O)([C@@H]2CCCCN2)C1 + Cc1c(S(C)(=O)=O)c(-c2cc(F)cc(N3CCN(c4ccc(NS(=O)(=O)c5ccc(NC(CCN6CCC(C(=O)OCCCP(=O)(O)O)CC6)CSc6ccccc6)c(S(=O)(=O)C(F)(F)F)c5)cc4)CC3)c2)c(-c2ccc(Cl)cc2)n1C(C)C	4.44

Now for another entry.
Entry C#Cc1c(F)ccc2cc(O)cc(-c3ncc4c(N5CC6CCC(C5)N6)nc(OCC56CCCN5CC(F)C6)nc4c3F)c12 (stereo not drawn) + Cc1c(S(C)(=O)=O)c(-c2cc(F)cc(N3CCN(c4ccc(NS(=O)(=O)c5ccc(NC(CCN6CCC(C(=O)OCCCP(=O)(O)O)CC6)CSc6ccccc6)c(S(=O)(=O)C(F)(F)F)c5)cc4)CC3)c2)c(-c2ccc(Cl)cc2)n1C(C)C , tested on 993429-296-R-J1-PDC complex spheroid growth, percent test/control, has a reported IC50 of 1450
